target: CDK7/cyclinH/MAT1 trimeric complex (Homo sapiens, UniProt P50613); assay: In vitro CDK7 assay, potency of irreversible covalent inhibitors (kinact/KI), coupled PK/LDH ADP readout at 340 nm; conditions: read-out: CDK7 (20 nM enz.) (kinact, s^−1), 20 nM enzyme
Sequence (P50613 whole entry): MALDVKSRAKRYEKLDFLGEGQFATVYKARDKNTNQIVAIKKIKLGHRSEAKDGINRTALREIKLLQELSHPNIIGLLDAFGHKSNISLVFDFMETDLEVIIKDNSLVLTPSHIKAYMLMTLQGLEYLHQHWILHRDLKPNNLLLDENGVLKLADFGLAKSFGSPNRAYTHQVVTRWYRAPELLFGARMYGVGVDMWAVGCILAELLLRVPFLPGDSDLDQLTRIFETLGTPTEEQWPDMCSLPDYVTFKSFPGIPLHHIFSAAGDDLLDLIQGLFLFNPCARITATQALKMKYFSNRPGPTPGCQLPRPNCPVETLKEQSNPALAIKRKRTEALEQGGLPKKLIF
Sequence (P51946 whole entry partner): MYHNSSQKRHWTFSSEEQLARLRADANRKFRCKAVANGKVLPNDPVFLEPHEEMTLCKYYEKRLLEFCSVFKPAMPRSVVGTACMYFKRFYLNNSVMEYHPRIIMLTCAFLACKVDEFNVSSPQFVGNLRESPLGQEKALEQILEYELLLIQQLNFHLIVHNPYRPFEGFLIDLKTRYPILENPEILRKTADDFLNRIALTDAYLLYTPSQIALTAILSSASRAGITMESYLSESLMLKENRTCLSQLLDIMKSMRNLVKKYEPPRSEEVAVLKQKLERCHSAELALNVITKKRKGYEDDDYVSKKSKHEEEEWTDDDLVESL
Sequence (P51948 whole entry partner): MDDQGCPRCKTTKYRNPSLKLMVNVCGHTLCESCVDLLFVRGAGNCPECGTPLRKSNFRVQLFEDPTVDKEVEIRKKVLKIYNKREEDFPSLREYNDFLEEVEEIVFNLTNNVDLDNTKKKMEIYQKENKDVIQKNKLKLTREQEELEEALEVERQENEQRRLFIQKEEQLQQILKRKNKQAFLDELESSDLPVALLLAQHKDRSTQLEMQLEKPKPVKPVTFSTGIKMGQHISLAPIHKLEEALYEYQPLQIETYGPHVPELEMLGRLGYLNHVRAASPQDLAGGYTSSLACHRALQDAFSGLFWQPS
reported-property: kinact (s⁻¹)
Numeric only. Scale: s⁻¹

# return kinact of CC#CC(=O)N1CC(N2CC[C@@H](c3cc4c(c(C)n3)O[C@@H](C)c3c(N5CCOCC5)ccnc3N4)N(C)CC2)C1 (single isomer, unassigned) (system: CDK7/cyclinH/MAT1 trimeric complex (Homo sapiens, UniProt P50613))
2.72e-05

Name the value of kinact reported for "C=CC(=O)N1CC(N2CCC(c3ccc4c(c3)Nc3nccc(C5CCOCC5)c3CO4)CC2)C1" when tested on CDK7/cyclinH/MAT1 trimeric complex (Homo sapiens, UniProt P50613).
3.4e-05

Fill in: kinact on CDK7/cyclinH/MAT1 trimeric complex (Homo sapiens, UniProt P50613), entry C=CC(=O)N1CCC(N2CC(c3cc4c(c(C5CC5)n3)O[C@H](C)c3c(N5CCOCC5)ccnc3N4)C2)CC1 (single isomer, unassigned)
2.2e-05

Provide kinact, system CDK7/cyclinH/MAT1 trimeric complex (Homo sapiens, UniProt P50613), entry C=CC(=O)N1CC(N2CC[C@@H](c3cc4c(c(C)n3)O[C@H](C)c3c(N5CCOCC5)ccnc3N4)C2)C1 (single isomer, unassigned) [Compound 245]
3.61e-05

Return reported kinact for target or system CDK7/cyclinH/MAT1 trimeric complex (Homo sapiens, UniProt P50613), item "CC#CC(=O)N1CCN(C2CN(c3cc4c(c(C)n3)OCc3c(N5CCOCC5)ccnc3N4)C2)CC1" .
1.25e-05

Please report kinact with CDK7/cyclinH/MAT1 trimeric complex (Homo sapiens, UniProt P50613) for item C=CC(=O)N1CC[C@@H](N2CC(c3cc(C)c4c(c3)Nc3nccc(-c5cnn(C)c5)c3CO4)C2)C1 (single isomer, unassigned) [Compound 362] .
6.59e-05

Where do the numbers come from? From patent US20240254138A1.
